Cited source for all entries: PubChem BioAssay AID1159580

- Protocol Notes: chemical genetic growth profiling, strain panel (AID 1159580);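 further: tested at 20 µM; growth read once vehicle control cultures reached saturation at 30 °C; 1 = growth at the plate median or of vehicle wells; lower values mean less growth of the strain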
- Experimental Setup: S. cerevisiae deletion strains, growth OD, locus YJL129C, strain trk1, stronger effect = lower value
Out of some 5,500 compounds screened, about 2,000 (36%) were called active. Inconclusive results (about 18%) are left out. The list shows a part of the results.
The reader will find reported normalized growth values listed item by item below.

COc1ccc([C@H]2Oc3cc(OC)cc(OC)c3C[C@H]2O)cc1: 1.04 (inactive)

Ask: Recall and state the measured normalized growth for CCCCN(CCCC)CCCOC(=O)c1ccc(N)cc1 .
Result: 1 (inactive)

Ask: Look up normalized growth of CCCC(=O)O[C@]1(C(=O)CO)CCC2[C@@H]3CCC4=CC(=O)CC[C@]4(C)C3[C@@H](O)C[C@@]21C (stereo partly specified) and report it.
Result: 1.01 (inactive)

Ask: Output normalized growth of CCCCC(=O)Oc1ccccc1C(=O)O
Result: 0.946 (inactive)

Ask: Give the value of normalized growth reported for the following: COc1ccc2c(c1)O[C@H]1c3ccc(OC)cc3OC[C@@H]21
Result: 1.05 (inactive)

Ask: Assign normalized growth to the following record: NC(CO)C(=O)NNCc1ccc(O)c(O)c1O (stereo unspecified)
Result: 1.06 (inactive)

Ask: Quickly give me recorded normalized growth for Nc1ccc(N=Nc2ccccc2)c(N)n1
Result: 1.14 [resistant] (active)

Ask: Let me know recorded normalized growth for COc1ccc2c(c1OC)C(=O)OC2[C@H]1c2c(cc3c(c2OC)OCO3)CCN1C (stereo partly specified) , thanks.
Result: 0.995 (inactive)

Ask: Identify measured normalized growth associated with Nc1ccn(C2O[C@H](CO)[C@@H](O)[C@@H]2O)c(=O)n1 (stereo partly specified)
Result: 1.01 (inactive)

Ask: Give the reported value of normalized growth for this record: CCCCCCOc1ccccc1C(N)=O
Result: 0.755 (active)

Ask: Using the record for C=C1C(=O)O[C@@H]2C3O[C@]3(C)CC/C=C(\C)CC[C@@H]12 (stereo partly specified) , state its measured normalized growth.
Result: 1 (inactive)

----------
- Protocol Notes: chemical genetic growth profiling, strain panel (AID 1159580);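 further: tested at 20 µM; growth read once vehicle control cultures reached saturation at 30 °C; 1 = growth at the plate median or of vehicle wells; lower values mean less growth of the strain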
- Experimental Setup: S. cerevisiae deletion strains, growth OD, locus YOR119C, strain RIO1
Among all 5,500 compounds or so, about 2,000 (36%) were called active. About 18% were inconclusive and are not listed. Cut-off read from the data, not from the text of the source: active = normalized growth mostly below about 0.91 (no sharp cut-off); inconclusive = no clear call, values can overlap the other calls; inactive = mostly above about 0.92. The list shows a part of the results.
Pick from active, inactive when you respond.

The following compounds have reported results that may help.
Cc1ccc(NS(=O)(=O)c2ccc(-c3csc(C)n3)s2)c(C)c1: inactive
O=C(Nc1ccc(Cl)cc1)OCCSc1nc2ccccc2s1: inactive
O=[N+]([O-])c1ccc2oc(C(O)c3ccc(-c4ccccc4)cc3)cc2c1 (stereo unspecified): inactive
ClC1=C(C=Nc2ccc(Cl)cc2)CSc2ccc(Cl)cc21: inactive

Ask: State the result this test recorded for O=[N+]([O-])c1ccc(Sc2ssc(=S)c2-c2ccccc2)nc1 .
Result: inactive

Ask: Assay result, entry CCCCCCCCCCCC(=O)NOC(=O)c1c(-c2c(Cl)cccc2Cl)noc1C — outcome?
Result: active

Ask: # lookup: test call for Cc1c(-c2ccnn2C(=O)c2ccco2)cnn1-c1ccccc1
Result: inactive

Ask: Which outcome was assigned to Cc1ccc(NC(=O)c2ccccc2N=Cc2cc(Cl)cc(Cl)c2O)c(N=Cc2cc(Cl)cc(Cl)c2O)c1 in this test?
Result: active

Ask: Give the logged outcome of this assay for the following compound: Cc1ccc(NS(=O)(=O)c2ccc(Cl)cc2)c(N=Cc2cc(Cl)cc(Cl)c2O)c1
Result: active

Ask: Which outcome was entered for the compound Cc1onc(-c2c(F)cccc2Cl)c1C(=O)NNc1cc(Cl)cc(Cl)c1 in this test?
Result: inactive

Ask: For this compound, state the assay outcome: FC(F)(F)c1ccnc(N2CCCN(C(=S)Nc3ccc(Cl)cc3Cl)CC2)n1
Result: inactive

Ask: Check the results log: what was the call for O=[N+]([O-])c1ccc2oc(C(O)c3cccc(Cl)c3)cc2c1 (stereo unspecified) ?
Result: inactive

Ask: # outcome recorded in this test, key = CC(=O)ON=C1c2cc([N+](=O)[O-])ccc2-c2ccc([N+](=O)[O-])cc21
Result: inactive

Ask: // outcome(item) with item = O=c1c2ccccc2[nH]c(=S)n1-c1cccc(C(F)(F)F)c1
Result: active

Ask: Tell me the assay call for Cc1onc(-c2c(Cl)cccc2Cl)c1C(=O)NC(C)(C)CC(C)(C)C please.
Result: inactive

Ask: Entry CC(C)(CCC(C)(C)N1C(=O)c2cccc3cccc(c23)C1=O)N1C(=O)c2cccc3cccc(c23)C1=O : call = ?
Result: active
